- test_target: human 5-lipoxygenase (5-hLO) (Homo sapiens)
- Sequence (P09917 whole entry): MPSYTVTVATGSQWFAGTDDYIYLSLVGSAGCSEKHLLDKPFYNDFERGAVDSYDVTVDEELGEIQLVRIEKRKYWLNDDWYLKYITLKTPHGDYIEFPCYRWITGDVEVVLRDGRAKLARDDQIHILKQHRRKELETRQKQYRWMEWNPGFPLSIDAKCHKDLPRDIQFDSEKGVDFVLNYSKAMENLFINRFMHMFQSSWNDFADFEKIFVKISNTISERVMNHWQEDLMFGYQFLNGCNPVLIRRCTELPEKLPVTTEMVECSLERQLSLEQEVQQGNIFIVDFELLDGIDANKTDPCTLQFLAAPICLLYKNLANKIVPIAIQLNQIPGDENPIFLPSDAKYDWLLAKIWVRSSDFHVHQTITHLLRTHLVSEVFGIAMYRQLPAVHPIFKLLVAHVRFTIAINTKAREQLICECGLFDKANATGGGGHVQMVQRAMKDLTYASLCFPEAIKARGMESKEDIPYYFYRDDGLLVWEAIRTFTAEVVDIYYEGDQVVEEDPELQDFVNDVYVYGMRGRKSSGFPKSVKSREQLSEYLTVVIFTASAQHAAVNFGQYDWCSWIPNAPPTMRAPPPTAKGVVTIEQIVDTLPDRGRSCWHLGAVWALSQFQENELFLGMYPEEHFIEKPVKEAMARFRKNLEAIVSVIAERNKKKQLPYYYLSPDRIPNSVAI
- test_description: Lipoxygenase assay, 5-hLO
- assay_conditions: ratio of IC50 values
test_readout: 12-hLO/5-hLO selectivity ratio

>>> print(df.to_string())
                                   compound                    test_readout  observed
0  CC1(C)CCC[C@]2(C)[C@H]3C=C4C(=CC(=O)[C@@H]4O)O[C@@]3(C)CC[C@@H]12 [Compound 3, 20-hydroxyhaterumadienone]  12-hLO/5-hLO selectivity ratio       ~ 3
1  CC1(C)CCC[C@]2(C)C3=CC4=CC(=O)C(=O)C=C4O[C@@]3(C)CC[C@@H]12  12-hLO/5-hLO selectivity ratio         4
2  CC1(C)CCC[C@]2(C)[C@H]3C=C4C=C(O)C(=O)C=C4O[C@@]3(C)CC[C@@H]12  12-hLO/5-hLO selectivity ratio        32
3  CC1=C(CC/C(C)=C/CC/C(C)=C/Cc2cc(O)ccc2O)C(C)(C)CCC1  12-hLO/5-hLO selectivity ratio     > 111
